- Tested on: RPMI8226 multiple myeloma (MM) human cell lines
- assay-remarks: Cytotoxic effect of CBD, THC and combinations on RPMI8226 cells
- Assay type: cell-based
- recorded-conditions: Homo sapiens, RPMI-8226; RPMI8226 (RPMIS) MM cells; read-out: dose that caused 50% of MM cell death
pIC50: −log10 of the molar value.
outcome-measure: pIC50

> print(dat)
                            smiles.notation  experimental.value
1  C=C(C)[C@@H]1CCC(C)=C[C@H]1c1c(O)cc(CCCCC)cc1O                4.80
